The reported numbers originate from patent US20230322924A1.

The entries below are paired with their reported koff.
# subject of test: T1, Cyno CD33 ECD-HSA (cynomolgus monkey)
# T1 construct: Cyno CD33 ECD fused to HSA and a six-histidine tag; also called C33W1
# assay comment: ProteOn SPR, mAb captured on anti-human Fc, antigen as analyte
endpoint: koff (s⁻¹)

{"columns": ["binder", "endpoint", "result unit", "value reported"],
 "data": [
  ["C33B912 (antibody, V domains shown, OMNIMouse-derived anti-CD33 mAb; also called C33H252/C33L118; C33F550) VH: EVQLVESGGGLVQPGRSLRLSCAASGFTFDDYAMHWVRQAPGKGLEWVSGIGWSGGSIVYADSVKGRFTISRDNAKNSLYLQMNSLRAEDTALYYCAKDSPYGDFFDYWGQGTLVTVSS VL: DIVMTQSPDSLAVSLGERATINCKSSQTVFYSSNNKNYLAWYQQKPGQPPKLLISWASTRKSGVPDRFSGSGSGTDFTLTVSSLQAEDVAVYYCQHYYSTPYTFGQGTKLEIK", "koff", "s⁻¹", 0.00065],
  ["C33B915 (antibody, V domains shown, OMNIMouse-derived anti-CD33 mAb; same V regions as C33B907; also called C33H255/C33L121; C33F553) VH: EVQLVESGGGLVQPGRSLRLSCAASGFTFDDYAMHWVRQVPGEGLEWVSGISWNGGDMVYADSVKGRFTISRDNAKNSLYLQMNSLRPEDTALYYCVKDMPYFDFLTGSDYYYYGMDVWGQGTTVTVSS VL: SYELTQPPSVSVSPGQTASITCSGDNLGNEHVCWYHQKPGQSPVLVIYQNNKRPSGIPERFSGSNSGNTATLSISGTQATDEADYYCQAWDSTTAVFGGGTKLTVL", "koff", "s⁻¹", "8.93e-05"],
  ["C33B914 (antibody, V domains shown, OMNIMouse-derived anti-CD33 mAb; same V regions as C33B906; also called C33H254/C33L120; C33F552) VH: QVQLVESGGGVVQPGRSLRLSCAASGFTFSYYGMHWVRQAPDKGLEWVAVIWFDGNNKYYADSVKGRFTISRDNSKNTLYLQMNSLRAEDTAVYYCARDRELLFDYWGQGTLVTVSS VL: SYELTQPPSVSVSPGQTASITCSGDELGDMYACWYQQKPGQSPLVVIYQDSKRPSGIPERFSGSNSGNTATLTISGTQAMDEAAYYCQTWDTRIAVFGGGTNLTVL", "koff", "s⁻¹", 0.000233]
]}
